# Target Or Test System: TRKA (Homo sapiens)
# Construct: purchased Carna bioscience 08-186
# Sequence (P04629 33-796): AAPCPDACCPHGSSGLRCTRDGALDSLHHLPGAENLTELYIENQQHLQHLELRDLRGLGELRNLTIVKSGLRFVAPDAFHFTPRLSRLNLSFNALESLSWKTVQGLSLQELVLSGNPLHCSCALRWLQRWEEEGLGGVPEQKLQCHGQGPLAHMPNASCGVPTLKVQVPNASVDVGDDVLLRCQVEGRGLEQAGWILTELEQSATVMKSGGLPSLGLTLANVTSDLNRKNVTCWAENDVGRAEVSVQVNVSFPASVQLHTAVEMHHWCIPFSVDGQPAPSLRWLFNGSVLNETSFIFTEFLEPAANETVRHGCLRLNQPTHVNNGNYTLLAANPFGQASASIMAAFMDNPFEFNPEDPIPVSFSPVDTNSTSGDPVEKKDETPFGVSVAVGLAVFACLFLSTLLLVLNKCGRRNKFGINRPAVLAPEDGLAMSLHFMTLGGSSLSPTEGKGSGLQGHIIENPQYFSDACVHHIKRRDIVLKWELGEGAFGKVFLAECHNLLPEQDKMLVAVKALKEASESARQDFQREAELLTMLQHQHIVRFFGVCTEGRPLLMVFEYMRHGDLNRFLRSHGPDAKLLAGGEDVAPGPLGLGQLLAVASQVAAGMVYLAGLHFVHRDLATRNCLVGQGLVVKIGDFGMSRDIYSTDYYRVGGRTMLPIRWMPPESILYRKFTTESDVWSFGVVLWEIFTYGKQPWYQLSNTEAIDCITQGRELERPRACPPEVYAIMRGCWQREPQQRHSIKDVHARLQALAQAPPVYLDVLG
# Procedure Summary: HTRF KinEASE-TK kinase activity inhibition assay, TRKA
# Assay type: biochemical
# Measurement Parameters: ATP 100 µM
Assay Metric: IC50 (nM)
Hi! Could you send only the number? It should be in nM, unit omitted.

[[record]]
compound = "C[C@H]1Nc2ccn3ncc(c3n2)C(=O)NC[C@]2(C)COc3cc(F)cc1c3O2 [Example 23]"
target_or_test_system = "TRKA (Homo sapiens)"
value_measured = 4.83

[[record]]
compound = "C[C@H]1Nc2ccn3ncc(c3n2)C(=O)NCC[C@H]2Cc3cc(F)cc1c3O2 [Example 3]"
target_or_test_system = "TRKA (Homo sapiens)"
value_measured = 1.7

[[record]]
compound = "C[C@H]1Nc2ccn3ncc(c3n2)C(=O)NCCC2=Cc3cc(F)cc1c3O2 [Example 6]"
target_or_test_system = "TRKA (Homo sapiens)"
value_measured = 1.05


We next turn to a different compound, shown below.
The compound listed as COC[C@@]12CNC(=O)c3cnn4ccc(nc34)N[C@H](C)c3cc(F)cc(c3O1)C2 [Example 15] has a reported IC50 of 2.8
